attribute.measured: melting point

query: # input molecule: O=C(NCc1ccc(Cl)cc1)c1nnc2ccc(CO)cc2c1O ; wanted: its melting point
result: 296 to 298 °C

Continuing:
query: // lookup melting point for COC(=O)c1ccc2nnc(C(=O)NCc3ccc(Cl)cc3)c(O)c2c1
result: 308 to 310 °C

====

Biological target: HCMV polymerase (Human cytomegalovirus)
Construct: made in house; host or cells: recombinant baculovirus-infected SF-9 cells
Sequence (P08546 whole entry): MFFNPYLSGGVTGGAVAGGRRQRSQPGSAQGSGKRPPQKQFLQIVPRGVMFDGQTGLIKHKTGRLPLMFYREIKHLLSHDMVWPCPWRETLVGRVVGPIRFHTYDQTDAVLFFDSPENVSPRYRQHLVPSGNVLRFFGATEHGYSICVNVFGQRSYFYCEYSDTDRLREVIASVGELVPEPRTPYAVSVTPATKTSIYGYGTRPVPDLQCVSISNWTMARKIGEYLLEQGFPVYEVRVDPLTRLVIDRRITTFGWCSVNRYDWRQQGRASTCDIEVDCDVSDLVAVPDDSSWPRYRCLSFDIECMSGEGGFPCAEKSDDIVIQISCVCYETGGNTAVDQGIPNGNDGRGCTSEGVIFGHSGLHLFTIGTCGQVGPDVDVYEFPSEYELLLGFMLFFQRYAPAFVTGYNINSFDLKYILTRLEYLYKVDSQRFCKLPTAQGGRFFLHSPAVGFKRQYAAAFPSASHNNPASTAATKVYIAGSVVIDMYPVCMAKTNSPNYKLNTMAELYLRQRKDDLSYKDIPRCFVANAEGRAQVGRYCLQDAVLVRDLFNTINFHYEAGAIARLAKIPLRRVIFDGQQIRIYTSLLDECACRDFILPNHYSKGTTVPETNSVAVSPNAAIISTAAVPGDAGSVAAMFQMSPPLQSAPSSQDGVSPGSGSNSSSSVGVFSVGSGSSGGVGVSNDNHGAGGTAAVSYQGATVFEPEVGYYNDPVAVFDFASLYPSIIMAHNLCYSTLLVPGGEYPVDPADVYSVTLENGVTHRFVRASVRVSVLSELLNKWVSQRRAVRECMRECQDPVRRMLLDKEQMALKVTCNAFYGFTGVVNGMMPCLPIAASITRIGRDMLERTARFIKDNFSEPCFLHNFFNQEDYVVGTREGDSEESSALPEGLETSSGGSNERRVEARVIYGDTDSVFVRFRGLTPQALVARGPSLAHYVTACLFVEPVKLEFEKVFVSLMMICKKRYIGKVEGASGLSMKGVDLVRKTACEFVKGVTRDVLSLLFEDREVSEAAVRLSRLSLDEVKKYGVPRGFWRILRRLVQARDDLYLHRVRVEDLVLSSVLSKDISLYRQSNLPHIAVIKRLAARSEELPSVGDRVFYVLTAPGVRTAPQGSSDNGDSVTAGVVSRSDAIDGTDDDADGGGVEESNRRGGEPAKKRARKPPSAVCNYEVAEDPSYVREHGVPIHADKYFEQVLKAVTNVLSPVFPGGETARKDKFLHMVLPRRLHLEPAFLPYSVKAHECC
Assay: HCMV polymerase scintillation proximity assay (modified version)
Format: biochemical
Conditions: at a concentration of 20 μM; read-out: percent inhibition of the viral polymerase, HCMV
attribute.measured: inhibition at 20 µM (%)

query: Name the reported inhibition at 20 µM value associated with the molecule COC(=O)c1ccc2nnc(C(=O)NCc3ccc(Cl)cc3)c(O)c2c1 [Example 3]
result: 50

1 = O=C(NCc1ccc(Cl)cc1)c1nnc2ccc(CO)cc2c1O [Example 4]
2 = O=C(NCc1ccc(Cl)cc1)c1n[nH]c2ccccc2c1=O [Comp. 1]
query: Please tell me which of the two, 1 or 2 , has the higher reported inhibition at 20 µM value. Bench note: the answer is the label of the chosen record.
result: 2
(2: 90%, 1: 51%)
